pKi: −log10 of the molar value.
pKi values recorded for UniProtKB P53350
Sequence (P53350 whole entry): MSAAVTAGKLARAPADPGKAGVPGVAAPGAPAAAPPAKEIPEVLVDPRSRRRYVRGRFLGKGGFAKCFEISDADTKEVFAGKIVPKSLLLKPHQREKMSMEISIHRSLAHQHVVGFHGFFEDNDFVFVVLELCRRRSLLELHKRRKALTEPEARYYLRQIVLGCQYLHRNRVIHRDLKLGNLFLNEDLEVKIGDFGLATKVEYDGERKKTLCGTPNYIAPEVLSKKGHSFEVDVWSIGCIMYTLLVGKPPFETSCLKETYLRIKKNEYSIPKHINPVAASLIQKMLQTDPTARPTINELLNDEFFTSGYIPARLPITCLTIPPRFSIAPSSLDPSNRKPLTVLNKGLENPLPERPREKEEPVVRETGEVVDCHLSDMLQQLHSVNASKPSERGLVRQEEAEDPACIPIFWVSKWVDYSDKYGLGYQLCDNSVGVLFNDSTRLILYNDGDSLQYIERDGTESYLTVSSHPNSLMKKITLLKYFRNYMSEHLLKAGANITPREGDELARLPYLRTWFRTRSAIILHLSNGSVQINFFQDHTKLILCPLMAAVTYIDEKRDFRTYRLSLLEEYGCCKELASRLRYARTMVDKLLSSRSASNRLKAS

Consider the following illustrative entries.
{"compound": "C[C@H](N)C(=O)N1CCC([C@@H](C)Nc2ncc(C#N)c(-c3c[nH]c4ncc(C(F)(F)F)cc34)n2)CC1 [Compound I-243]", "observed-value": "> 8.52"}
{"compound": "N#Cc1cnc(NCc2ccccc2)nc1-c1c[nH]c2ncc(C(F)(F)F)cc12 [Compound I-1]", "observed-value": "< 7.40"}
{"compound": "CC(C)(Nc1ncc(C#N)c(-c2c[nH]c3ncc(Cl)cc23)n1)C(=O)NC1CCCC1 [IA-4]", "observed-value": "7.40 to 8.52"}
{"compound": "COCC(Nc1ncc(C#N)c(-c2c[nH]c3ncc(C(F)(F)F)cc23)n1)C(C)C (stereo not drawn) [Compound I-110]", "observed-value": "7.40 to 8.52"}
{"compound": "C[C@@H](Nc1ncc(C#N)c(-c2c[nH]c3ncc(C(F)(F)F)cc23)n1)c1ccc(N2CCCC2=O)cc1 [Compound I-145]", "observed-value": "> 8.52"}

Form field - read-out: pKi; system: UniProtKB P53350; submitted item: C[C@@H](Nc1ncc(C#N)c(-c2c[nH]c3ncc(C(F)(F)F)cc23)n1)C1CCN(C(=O)CC#N)CC1 [Compound I-233]
> 8.52

Form entry - test system: UniProtKB P53350; read-out: pKi; compound: C[C@@H](O)C(=O)N[C@H]1CC[C@H]([C@@H](C)Nc2ncc(C#N)c(-c3c[nH]c4ncc(C(F)(F)F)cc34)n2)CC1 [Compound I-265]
> 8.52

Provenance of the data: patent US8530489B2
